tested on: LCLC-97TM1; assay: relative viability (nuclei count vs DMSO), 5 days (fraction); higher = more cells survive; conditions: first compound 1.265 µM
In this section we review reported relative viability values for a set of molecules.
The response must contain the number and no unit.

{"columns": ["molecule", "quantity_kind", "recorded_result"],
 "data": [
  ["COc1cc(N2CCC(C(N)=O)CC2)ccc1Nc1nc(N)c(Cl)c(Nc2ccccc2S(=O)(=O)C(C)C)n1 [HG-5-88-01] + CC(=O)c1c(C)c2cnc(Nc3ccc(N4CCNCC4)cn3)nc2n(C2CCCC2)c1=O [Palbociclib] (partner 0.5 µM)", "relative viability", 0.194]
]}

Query: Recorded relative viability for Clc1ccc(Nc2nnc(Cc3ccncc3)c3ccccc23)cc1 [Vatalanib] + CC(=O)c1c(C)c2cnc(Nc3ccc(N4CCNCC4)cn3)nc2n(C2CCCC2)c1=O [Palbociclib] (partner 0.5 µM) , please?
Response: 0.247

---

tested on: SW 1573; assay: relative viability (nuclei count vs DMSO), 5 days (fraction); higher = more cells survive; settings: first compound 0.04 µM
quantity_kind: relative viability
The response must contain the number and no unit.

{"columns": ["compound", "relative viability"],
 "data": [
  ["Clc1ccc(Nc2nnc(Cc3ccncc3)c3ccccc23)cc1 [Vatalanib] + Cc1cc(Nc2cc(N3CCN(C)CC3)nc(Sc3ccc(NC(=O)C4CC4)cc3)n2)n[nH]1 [Tozasertib] (partner 0.1 µM)", 0.145]
]}

Query: Recorded relative viability for COc1cc(N2CCC(C(N)=O)CC2)ccc1Nc1nc(N)c(Cl)c(Nc2ccccc2S(=O)(=O)C(C)C)n1 [HG-5-88-01] + CC(=O)c1c(C)c2cnc(Nc3ccc(N4CCNCC4)cn3)nc2n(C2CCCC2)c1=O [Palbociclib] (partner 0.5 µM) , please?
Response: 0.412

Query: Recorded relative viability for Clc1ccc(Nc2nnc(Cc3ccncc3)c3ccccc23)cc1 [Vatalanib] + C[C@@H](Oc1cc(-c2cnn(C3CCNCC3)c2)cnc1N)c1c(Cl)ccc(F)c1Cl [Crizotinib] (partner 1 µM) , please?
Response: 0.918

---

tested on: NCI-H441; experiment: relative viability (nuclei count vs DMSO), 5 days (fraction); higher = more cells survive; conditions: first compound 0.04 µM
In this section we review reported relative viability values for a set of compounds.
The response must contain the number and no unit.

Examples with their reported relative viability follow.
{"columns": ["compound", "relative viability"],
 "data": [
  ["COc1cc(N2CCC(C(N)=O)CC2)ccc1Nc1nc(N)c(Cl)c(Nc2ccccc2S(=O)(=O)C(C)C)n1 [HG-5-88-01] + CS(=O)(=O)N1CCN(Cc2cc3nc(-c4cccc5[nH]ncc45)nc(N4CCOCC4)c3s2)CC1 [Pictilisib] (partner 1 µM)", 0.435],
  ["COc1cc(N2CCC(C(N)=O)CC2)ccc1Nc1nc(N)c(Cl)c(Nc2ccccc2S(=O)(=O)C(C)C)n1 [HG-5-88-01] + O=C(CCCCCCC(=O)Nc1ccccc1)NO [Vorinostat] (partner 1 µM)", 0.779]
]}

Query: Recorded relative viability for COc1cc(N2CCC(C(N)=O)CC2)ccc1Nc1nc(N)c(Cl)c(Nc2ccccc2S(=O)(=O)C(C)C)n1 [HG-5-88-01] + N=C(N)NC(=N)NCCc1ccccc1 [Phenformin] (partner 250 µM) , please?
Response: 0.835

Query: Recorded relative viability for Clc1ccc(Nc2nnc(Cc3ccncc3)c3ccccc23)cc1 [Vatalanib] + CC(C)C[C@H](NC(=O)[C@H](Cc1ccccc1)NC(=O)c1cnccn1)B(O)O [Bortezomib] (partner 0.002 µM) , please?
Response: 0.421

Query: Recorded relative viability for Clc1ccc(Nc2nnc(Cc3ccncc3)c3ccccc23)cc1 [Vatalanib] + COc1cc2c(Oc3ccc(NC(=O)C4(C(=O)Nc5ccc(F)cc5)CC4)cc3F)ccnc2cc1OCCCN1CCOCC1 [Foretinib] (partner 0.25 µM) , please?
Response: 0.994

Query: Recorded relative viability for Clc1ccc(Nc2nnc(Cc3ccncc3)c3ccccc23)cc1 [Vatalanib] + O=C(c1cc(Cc2n[nH]c(=O)c3ccccc23)ccc1F)N1CCN(C(=O)C2CC2)CC1 [Olaparib] (partner 8 µM) , please?
Response: 0.546

Query: Recorded relative viability for COc1cc(N2CCC(C(N)=O)CC2)ccc1Nc1nc(N)c(Cl)c(Nc2ccccc2S(=O)(=O)C(C)C)n1 [HG-5-88-01] + CCNC(=O)c1noc(-c2cc(C(C)C)c(O)cc2O)c1-c1ccc(CN2CCOCC2)cc1 [Luminespib] (partner 0.01 µM) , please?
Response: 0.284

Query: Recorded relative viability for Clc1ccc(Nc2nnc(Cc3ccncc3)c3ccccc23)cc1 [Vatalanib] + N=C(N)NC(=N)NCCc1ccccc1 [Phenformin] (partner 250 µM) , please?
Response: 0.904

Query: Recorded relative viability for C[C@@H]1CN(CC(=O)Nc2ccc3c(c2)Cc2cccc(-c4cc(=O)cc(N5CCOCC5)o4)c2S3)C[C@H](C)O1 + CC(C)C[C@H](NC(=O)[C@H](Cc1ccccc1)NC(=O)c1cnccn1)B(O)O [Bortezomib] (partner 0.002 µM) , please?
Response: 0.6

Query: Recorded relative viability for C[C@@H]1CN(CC(=O)Nc2ccc3c(c2)Cc2cccc(-c4cc(=O)cc(N5CCOCC5)o4)c2S3)C[C@H](C)O1 + O=C(c1cc(Cc2n[nH]c(=O)c3ccccc23)ccc1F)N1CCN(C(=O)C2CC2)CC1 [Olaparib] (partner 8 µM) , please?
Response: 0.636
